- System: RAJI cells
- Protocol summary: Cytotoxicity (CC50), Raji cells
- Type: cell-based, human
- Experimental setup: average CC50 of non-malignant cells / CC50 RAJI
- Method: In brief, the compounds were incubated for 24 h with the neoplasms, using DMEM and RPMI media. Three independent experiments were carried out.
Documented SI RAJI across a set of compounds
// print number alone

Compound: C=CC(=O)NNC(=O)c1cc(Cl)ccc1Cl [1h, N^2-Acryloyl-2,5-dichlorobenzohydrazide]
Test target: RAJI cells
Result type: SI RAJI
Measured value: 2.49

So, C=CC(=O)NNC(=O)c1ccc(Cl)cc1 [1d, N^2-Acryloyl-4-chlorobenzohydrazide] ? Its SI RAJI was 3.24

So, C=CC(=O)NNC(=O)c1ccccc1 [1a, N^2-Acryloylbenzohydrazide] ? Its SI RAJI was 2.49

So, C=CC(=O)NNC(=O)c1ccc(OC)cc1 [1l, N^2-Acryloyl-4-methoxylbenzohydrazide] ? Its SI RAJI was 6.11

====

- Tested on: MDA-MB-231 cells
- Protocol summary: Cytotoxicity assay, MDA-MB-231 breast cancer cells
- Type: cell-based, human
- Experimental setup: Homo sapiens, MDA-MB-231; Table 2; 48 h; read-out: Neoplastic Cells IC50, MDA-MB-231
- From the text: Evaluation of the cytotoxic properties of the compounds presented in Table 1, Table 2, Table 3 and Table 4 was undertaken using the procedure outlined in [7]. In brief, the HCT 116 cells were obtained from the ATCC and cultured in McCoy’s 5A medium. The CRL 1790 cells were obtained from the ATCC and cultured in Minimum Essential Medium. The MCF-7 and MDA-MBA-231 cells were obtained from the Saskatchewan Cancer Agency and cultured in DMEM. […]
Result type: IC50 (µM)
Quick note: give the figure in µM, leave out the unit.

Given the compound N[C@@H](Cc1ccc(N(CCCl)CCCl)cc1)C(=O)O [Melphalan, reference compound] and test system MDA-MB-231 cells, the measured IC50 is 52.9

Given the compound O=c1[nH]cc(F)c(=O)[nH]1 [5-FU, 5-fluorouracil, reference compound] and test system MDA-MB-231 cells, the measured IC50 is 15.9

====

- Test system: MCF-7 cells
- Protocol summary: Cytotoxicity assay, MCF-7 breast cancer cells
- Assay type: cell-based, human
- Experimental setup: IC50 CRL 1790 / IC50 MCF-7; Table 2
Result type: SI (selectivity index)

Solved entries (count: 4):
Compound: C=CC(=O)NNC(=O)c1ccccc1C [1j, N^2-Acryloyl-2-methylbenzohydrazide]
Measured value: >10.9
--
Compound: O=c1[nH]cc(F)c(=O)[nH]1 [5-FU, 5-fluorouracil, reference compound]
Measured value: 5.42
--
Compound: C=CC(=O)NNC(=O)c1ccc(C)cc1 [1k, N^2-Acryloyl-4-methylbenzohydrazide]
Measured value: >18.1
--
Compound: C=CC(=O)NNC(=O)c1ccc(OC)cc1 [1l, N^2-Acryloyl-4-methoxylbenzohydrazide]
Measured value: >31.5

Pending compound:
So, N[C@@H](Cc1ccc(N(CCCl)CCCl)cc1)C(=O)O [Melphalan, reference compound] ? Its SI (selectivity index) was >8.32

====

Documented SI HL-60 across a set of molecules
- Tested on: HL-60 cells
- Protocol summary: Cytotoxicity (CC50), HL-60 cells
- Assay type: cell-based, human
- Experimental setup: average CC50 of non-malignant cells / CC50 HL-60
// print number alone

Solved entries (count: 3):
Molecule: C=CC(=O)NNC(=O)c1cc(Cl)ccc1Cl [1h, N^2-Acryloyl-2,5-dichlorobenzohydrazide]
Test target: HL-60 cells
SI HL-60: 2.44
--
Molecule: C=CC(=O)NNC(=O)c1ccc(OC)cc1 [1l, N^2-Acryloyl-4-methoxylbenzohydrazide]
Test target: HL-60 cells
SI HL-60: 9.62
--
Molecule: C=CC(=O)NNC(=O)c1ccc(Cl)cc1 [1d, N^2-Acryloyl-4-chlorobenzohydrazide]
Test target: HL-60 cells
SI HL-60: 3.00

Pending molecule:
Given the molecule C=CC(=O)NNC(=O)c1ccccc1 [1a, N^2-Acryloylbenzohydrazide] and test system HL-60 cells, the measured SI HL-60 is 3.89

Attribution: paper PMC8226474
